Test system: NCI-H23
procedureDetails: NCI tumour cell line growth inhibition, 48 h
Active and inactive are the calls of the source. Cut-off read from the data, not from the text of the source: active = GI50 up to about 1.1 µM and inactive = higher.
Thanks in advance; please answer with one of these: Y = active, N = inactive

These recorded examples may help you get a feel for the data.
- compound: "Cc1ccc(S(=O)(=O)N2CCSCCSCCSCCSCC2)cc1"
  answerLabel: "N"
- compound: "O=C(O)C12C3CCC(O3)C1(C(=O)O)C1CCC2O1 (centres undefined)"
  answerLabel: "N"
- compound: "COC(=O)Nc1nc2cc(C(=O)c3cccs3)ccc2[nH]1 [NOCODAZOLE]"
  answerLabel: "Y"

Could you now consider this next compound?
Query: Recorded call for CCOC(=O)C(CNc1ccc(O)cc1)NC(=O)c1ccccc1 (centres undefined) ?
Response: N
